- experimental.system: Polθ polymerase domain (amino acids 1792-2590) (Homo sapiens, UniProt O75417)
- Construct: 10×Histidine-SUMO (N, cleaved yes); made in house; host or cells: E. coli
- Sequence (O75417 1792-2590): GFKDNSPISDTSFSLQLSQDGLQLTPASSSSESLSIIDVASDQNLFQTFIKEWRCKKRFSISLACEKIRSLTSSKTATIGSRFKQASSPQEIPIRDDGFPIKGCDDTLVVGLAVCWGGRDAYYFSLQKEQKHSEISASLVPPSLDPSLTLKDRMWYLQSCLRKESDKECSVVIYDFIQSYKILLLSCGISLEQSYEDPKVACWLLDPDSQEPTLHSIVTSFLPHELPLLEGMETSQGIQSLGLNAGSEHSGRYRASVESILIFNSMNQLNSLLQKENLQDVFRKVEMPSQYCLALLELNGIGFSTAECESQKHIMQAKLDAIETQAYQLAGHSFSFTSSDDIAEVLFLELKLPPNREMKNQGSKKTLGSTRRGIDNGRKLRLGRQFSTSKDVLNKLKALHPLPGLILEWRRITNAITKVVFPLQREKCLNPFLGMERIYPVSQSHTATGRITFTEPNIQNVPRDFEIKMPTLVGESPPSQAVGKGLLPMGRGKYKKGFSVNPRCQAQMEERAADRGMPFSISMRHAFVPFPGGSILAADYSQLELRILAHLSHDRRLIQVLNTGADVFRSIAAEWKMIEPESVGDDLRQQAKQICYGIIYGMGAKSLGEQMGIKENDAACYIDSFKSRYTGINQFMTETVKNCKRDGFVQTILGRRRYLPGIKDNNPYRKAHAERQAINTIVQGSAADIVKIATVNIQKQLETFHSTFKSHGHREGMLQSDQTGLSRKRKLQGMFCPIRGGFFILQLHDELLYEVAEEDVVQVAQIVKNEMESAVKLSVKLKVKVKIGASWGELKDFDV
- protocol.description: Picogreen assay of Polθ polymerase activity
- Format: biochemical
- test.parameters: 12-point concentration response, 90 minutes incubation at room temperature, 8 nM Polθ in 2×polymerase mixture, read-out: PolQ IC50
measurement.name: IC50

given.smiles: Cc1cc(C(F)(F)F)cc(N2[C@H](C(=O)N(CC#Cc3ccc(C(N)=O)nc3)c3ccc(F)c(C)c3)CCS2(=O)=O)n1
IC50: 1 to 50 nM

Assign IC50 to the following record: "CC(=O)Nc1ccc(C#CCN(C(=O)[C@@H]2CCS(=O)(=O)N2c2cc(C(F)(F)F)cc(C)n2)c2ccc(F)c(C)c2)nn1"
1 to 50 nM

Assign IC50 to the following record: "Cc1cc(C(F)(F)F)cc(N2[C@@H](C(=O)N(CC#Cc3ccc(C(N)=O)nc3)Cc3ccc(F)c(C)c3)CCS2(=O)=O)n1"
> 101 nM
